- MEASUREMENT TARGET: p110δ/p85α (Homo sapiens (Human))
- Sequence (O00329 whole entry): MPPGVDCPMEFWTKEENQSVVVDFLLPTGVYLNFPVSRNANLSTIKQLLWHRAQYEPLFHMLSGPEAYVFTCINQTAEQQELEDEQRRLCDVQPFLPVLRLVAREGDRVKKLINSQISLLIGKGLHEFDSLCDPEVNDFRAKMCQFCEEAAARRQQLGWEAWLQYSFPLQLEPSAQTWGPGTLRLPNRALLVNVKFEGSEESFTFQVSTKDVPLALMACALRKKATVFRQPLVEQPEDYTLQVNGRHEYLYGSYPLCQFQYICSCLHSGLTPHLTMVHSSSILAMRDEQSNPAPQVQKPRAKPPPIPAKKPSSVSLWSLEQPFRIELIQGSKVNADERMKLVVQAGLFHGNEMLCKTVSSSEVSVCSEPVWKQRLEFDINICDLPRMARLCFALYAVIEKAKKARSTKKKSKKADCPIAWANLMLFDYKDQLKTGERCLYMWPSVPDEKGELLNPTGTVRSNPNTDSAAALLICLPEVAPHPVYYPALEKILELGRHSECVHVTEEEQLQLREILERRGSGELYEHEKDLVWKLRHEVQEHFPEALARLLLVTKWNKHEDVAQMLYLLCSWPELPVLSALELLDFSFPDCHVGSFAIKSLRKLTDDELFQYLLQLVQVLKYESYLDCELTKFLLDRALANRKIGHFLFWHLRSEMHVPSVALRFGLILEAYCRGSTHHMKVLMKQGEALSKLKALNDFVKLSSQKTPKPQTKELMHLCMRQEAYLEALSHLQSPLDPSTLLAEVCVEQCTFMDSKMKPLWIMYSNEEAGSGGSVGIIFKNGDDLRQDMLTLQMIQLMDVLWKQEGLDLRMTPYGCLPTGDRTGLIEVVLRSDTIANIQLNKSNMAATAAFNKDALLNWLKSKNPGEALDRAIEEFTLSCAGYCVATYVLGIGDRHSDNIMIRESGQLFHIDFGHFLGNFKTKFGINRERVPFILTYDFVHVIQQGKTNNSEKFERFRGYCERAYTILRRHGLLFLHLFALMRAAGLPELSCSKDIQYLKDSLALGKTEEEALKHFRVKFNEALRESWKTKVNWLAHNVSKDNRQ
- Sequence (P27986 whole entry partner): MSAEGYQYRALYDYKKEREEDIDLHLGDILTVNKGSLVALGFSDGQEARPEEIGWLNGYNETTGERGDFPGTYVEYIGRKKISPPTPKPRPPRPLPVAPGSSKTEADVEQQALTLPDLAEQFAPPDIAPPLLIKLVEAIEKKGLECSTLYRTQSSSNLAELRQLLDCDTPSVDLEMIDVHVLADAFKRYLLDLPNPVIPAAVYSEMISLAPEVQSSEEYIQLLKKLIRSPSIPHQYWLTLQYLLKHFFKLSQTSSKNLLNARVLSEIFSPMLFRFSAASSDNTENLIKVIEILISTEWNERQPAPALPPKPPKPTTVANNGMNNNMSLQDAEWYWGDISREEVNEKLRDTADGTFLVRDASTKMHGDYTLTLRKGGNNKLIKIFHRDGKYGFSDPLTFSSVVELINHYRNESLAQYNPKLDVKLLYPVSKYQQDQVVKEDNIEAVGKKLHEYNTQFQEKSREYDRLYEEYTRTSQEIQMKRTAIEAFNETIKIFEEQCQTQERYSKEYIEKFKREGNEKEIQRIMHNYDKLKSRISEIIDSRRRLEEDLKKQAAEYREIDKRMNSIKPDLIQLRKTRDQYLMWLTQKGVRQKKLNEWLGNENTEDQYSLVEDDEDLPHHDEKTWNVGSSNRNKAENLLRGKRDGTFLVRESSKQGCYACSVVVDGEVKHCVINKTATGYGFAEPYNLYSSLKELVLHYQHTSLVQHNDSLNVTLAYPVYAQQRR
- PROTOCOL SUMMARY: PI3K δ inhibition assay (TLC lipid kinase or HTRF)
READOUT TYPE: IC50

Reference set (3 entries):
[[record]]
compound = "Nc1nc2cc(-c3nn(Cc4cc5ccccc5nc4-c4ccccc4)c4ncnc(N)c34)ccc2o1"
result = "< 100 nM"

[[record]]
compound = "CC(c1cc2ccccc2nc1N1CCCC1)n1cnc2c(N)ncnc21 (centres unmarked)"
result = "> 1000 nM"

[[record]]
compound = "Cc1ccccc1-c1nc2ccccc2cc1Cn1nc(-c2ccc3nc(N)ncc3c2)c2c(N)ncnc21"
result = "< 100 nM"


Exercise: Which IC50 reading was recorded for the compound Nc1ncnc2c1c(-c1cccc(O)c1)nn2Cc1cc2ccccc2[nH]c1=O ?
Key: 100 to 1000 nM

Exercise: Now this one: Nc1ncc(-c2nn(Cc3cc4ccccc4nc3-c3ccccc3)c3nccc(N)c23)cn1
Key: 100 to 1000 nM

Exercise: Field entry: Nc1ccc2cc(-c3nn(Cc4cc5ccccc5nc4-c4ccccc4)c4ncnc(N)c34)ccc2n1
Key: < 100 nM

Exercise: Also, Cc1ccccc1-c1nc2ccccc2nc1Cn1nc(-c2cc(O)cc(F)c2)c2c(N)ncnc21 please.
Key: < 100 nM

Exercise: Also Cc1cccc2cc(Cn3nc(-c4cccc(O)c4)c4c(N)ncnc43)c(N3CCCC3)nc12 ?
Key: < 100 nM
